assay: NCI Yeast Anticancer Drug Screen. Data for the mlh1 rad18 strain (AID 175); conditions: S. cerevisiae mlh1 rad18 strain growth inhibition; at 50.0 µM (retest, dose inferred, filed as 5.0)
Compounds without any hit were thinned out: in the full panel of roughly 79,000, 15% have a hit. Active and inactive are the calls of the source. Cut-off read from the data, not from the text of the source: active = growth inhibition above about 70%; inactive = the rest.
Log the outcome using a class from active, inactive

Illustrative cases are given below, each with its answer.
Compound	Class label
O=C(O)c1cc(Br)ccc1OCc1ccc(Cl)cc1	inactive
CS(=O)(=O)OCCN(CCOS(C)(=O)=O)c1ccc(C=Nc2ccc3oc(=O)ccc3c2)cc1	active
CC(C)N=Cc1cc(I)cc(I)c1O.CC(C)N=Cc1cc(I)cc(I)c1O.[Co]	active
CC(C)OC(=O)CCCCCC1CCCCC1	inactive
C/C(=N\NC(=S)Nc1ccc([N+](=O)[O-])cc1)c1nc2ncccc2[nH]1	active

Query string: Which outcome was assigned to "OC(c1ccccc1)(c1ccccc1)C(F)(Cl)Cl" in this test?
Result string: inactive

Query string: Please state the recorded outcome for this compound: Cc1cc(S(=O)(=O)Nc2nc(N)nc(N(C)C)n2)c(SC(C(=O)O)c2ccccc2)cc1Cl (stereo unspecified)
Result string: inactive

Query string: Hi team, can someone confirm the assay call for "O=C(O)COc1ccccc1C(=O)O" ?
Result string: inactive

Query string: Please state the recorded outcome for this compound: CC1(CO)CCCC2(C)C3=C(CCCC3)CCC12 (stereo unspecified)
Result string: active

Query string: Please let me know the test result on file for "CN(C(=O)c1ccccc1)C1(COC(=O)c2ccccc2)CCCCC1" .
Result string: inactive

Query string: Please state the recorded outcome for this compound: "Cc1c(C)c(NC(=O)/C=C/C(=O)O)c(C)c(C)c1NC(=O)/C=C\C(=O)O"
Result string: inactive

###

test: NCI Yeast Anticancer Drug Screen. Data for the sgs1 mgt1 strain (AID 161);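 note: 0% = growth of cultures given vehicle only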; details: S. cerevisiae sgs1 mgt1 strain, at 5.0 µM (retest, dose inferred, filed as 0.5), stronger effect = higher value
Compounds without any hit were thinned out: in the full panel of roughly 79,000, 15% have a hit.
Reported growth inhibition by item:
Give a bare numeral; the unit % is implied.

Example molecules with recorded growth inhibition:
Molecule	Uom	Assay result
CN1C=C(C#N)CCC1Sc1ccc(Cl)cc1 (stereo not given)	%	3
Nc1cc2c(nc3c4ccccc4c(N)cc3[n+]2-c2cccc3ccccc23)c2ccccc12 (tested in a mixture with another compound)	%	59
CCOC(=O)/C=C(/Cl)C(=O)OCC	%	7

Query string: What does the record list as growth inhibition for "CCCCCCCCCCCC(=O)[O][Sn]([CH2]C)([CH2]C)[O]C(=O)CCCCCCCCCCC" ?
Result string: 3

Query string: Returns the measured growth inhibition for the input molecule. Input: "COc1ccc2c(C#N)cc3c(c[n+](C)c4ccccc34)c2c1"
Result string: 19

Query string: Can you share its growth inhibition? I mean this molecule: O=C1C2C3C=CC(C3)C2C(=NS(=O)(=O)c2ccccc2)C2C3C=CC(C3)C12 (stereo not given)
Result string: 3

Query string: Which value of growth inhibition has been reported for "COc1ccc(C2=C(Cl)C(=O)N(c3ccc(O)cc3)C(=O)C2(Cl)Cl)cc1" in the records?
Result string: 31

Query string: What measured growth inhibition goes with "COc1ccc2c(c1)C(=O)C[C@@H]1[C@](C)(C#N)CCC[C@]21C" ?
Result string: 3

Query string: Requested read-out: growth inhibition. Entry: CCC(C)n1c(C)nc2c(N)cc(C(F)(F)F)cc21 (stereo not given)
Result string: 4

Query string: GET /values?readout=growth inhibition&item= CCOC(=O)Nc1cc2c(cc1Br)-c1ccccc1C2O (stereo not given)
Result string: -7

###

experiment: NCI Yeast Anticancer Drug Screen. Data for the bub3 strain (AID 167); conditions: S. cerevisiae bub3 mutant strain, at 50.0 µM (retest, dose inferred, filed as 5.0), stronger effect = higher value
This is part of a sample that, as a whole, favours compounds with a hit. Of some 79,000 tested, about 15% had one in any assay. Where a SMILES comes first, the peptide text is derived from it. The star is where a group is joined. Trt = c1ccc(C(c2ccccc2)(c2ccccc2)*)cc1; Cbz = O=C(OCc1ccccc1)*
Cut-off 70% on growth inhibition, inclusive. At or above means 1; below means 0.

Sample answers from the record:
Molecule	Class label
COc1ccc2nc3c([N+](=O)[O-])ccc(NCCCN(C)C)c3c(N)c2c1	1
c1ccc2c(Nc3ccc(Oc4ccc(Nc5c6ccccc6nc6ccccc56)cc4)cc3)c3ccccc3nc2c1	1
COc1ccc(-c2c3ccccc3[n+](-c3ccccc3)c3ccccc23)cc1	1

Query string: Reported growth inhibition reaches at least 70% for "CCCCCCCCCCCC(=O)NN" ?
Result string: 0

Query string: Is it the case that "C1=CN2C(c3ccccc3)=NN(c3ccccc3)[C@@H]2c2ccccc21" has growth inhibition reaching or exceeding 70%?
Result string: 1

Query string: Exam item: decide whether the reported growth inhibition for CC1CCC2(OC1)OC1CC3C4CCC5CC(OC6OC(COC7OC(CO)C(O)C(O)C7O)C(OC7OC(C)C(O)C(O)C7O)C(O)C6OC6OC(CO)C(O)C(O)C6O)CCC5(C)C4CCC3(C)C1C2C (configuration not stated) is at least 70%.
Result string: 1

Query string: In plain terms: is recorded growth inhibition at least 70% for "CN(C)CCCN1c2cc(Cl)ccc2Sc2ccc3ccccc3c21" ?
Result string: 1

Query string: Identify whether the reported growth inhibition of the following molecule is 70% or greater: "CN(C)C(=S)NC(=S)Nc1ccc2ccccc2c1"
Result string: 1

Query string: // inclusive: growth inhibition at least 70%? input: "Cc1cc(C=Nc2ccccc2)c(O)c2ncccc12"
Result string: 1

Query string: Check if growth inhibition >= 70% (inclusive). Item: COc1cc(O)c2c(c1)C(O)C(O)CC1OC1C(=O)/C=C/CC(C)OC2=O (configuration not stated)
Result string: 1

Query string: # check: growth inhibition of "C1CCC(CC[N+]23CC[N+](CCC4CCCC4)(CC2)C3)C1" is greater than or equal to 70%
Result string: 0

Query string: Quick check, growth inhibition >= 70%? COC1CC2CCC(C)[C@](O)(O2)C(=O)C(=O)N2CCCCC2C(=O)OC(C(C)CC2CCC(O)C(OC)C2)CC(=O)C(C)C=C(C)C(OC(=O)CCCN2CCCC2)C(OC)C(=O)C(C)CC(C)/C=C/C=C/C=C\1C (some centres not stated)
Result string: 1

Query string: growth inhibition >= 70% for C1CCC(CC2CCC(NC3=NCCO3)CC2)CC1 (configuration not stated) ?
Result string: 1

Query string: Please check the record "Cc1cc(C)c(Cc2cc(C(C)(C)C)cc(C)c2O)cc1Cc1cc(C(C)(C)C)cc(C)c1O" and state if its growth inhibition is at or above 70%.
Result string: 0

Query string: Reported growth inhibition reaches at least 70% for "O=C(O)c1c(-c2ccccc2)cc(-c2ccccc2)cc1-c1ccccc1" ?
Result string: 1

Query string: Identify whether the reported growth inhibition of the following molecule is 70% or greater: "C/C(O)=C(/C=N\C(=S)Nc1ccc(Cl)c(Cl)c1)C(=O)Nc1ccccc1C"
Result string: 0

Query string: # check: growth inhibition of Cc1cc(C2C(O)C(c3cc(C)on3)C2(C)O)no1 (configuration not stated) is greater than or equal to 70%
Result string: 0

Query string: Please tell me: is the molecule "Cn1nc(-c2ccc3c(c2)OCO3)[n+]([O-])c2c(=O)n(C)c(=O)nc1-2" at or over 70% in terms of growth inhibition?
Result string: 1

Query string: Hi, just wondering whether CCOC(=O)CCC(NC(=O)C(CSC(c1ccccc1)(c1ccccc1)c1ccccc1)NC(=O)OCc1ccccc1)C(=O)NC(CCC(=O)OCC)C(=O)NC(CCC(=O)OCC)C(=O)NC(CCC(=O)OCC)C(=O)NC(CSC(c1ccccc1)(c1ccccc1)c1ccccc1)C(=O)OC (configuration not stated) (Cbz-C(Trt)E(OEt)E(OEt)E(OEt)E(OEt)C(Trt)-OMe; configuration not given here) shows growth inhibition of 70% or higher.
Result string: 0

Query string: Test whether the molecule "CCn1cnc2[nH]cc(C#N)c2c1=O" records growth inhibition of 70% or higher.
Result string: 0

Query string: # check: growth inhibition of "CO[C@H]1C[C@@H]2CC[C@@H](C)[C@@](O)(O2)C(=O)C(=O)N2CCCC[C@H]2C(=O)O[C@H]([C@H](C)C[C@@H]2CC[C@@H](OC(=O)C(C)(CO)CO)[C@H](OC)C2)CC(=O)[C@H](C)/C=C(\C)[C@@H](O)[C@@H](OC)C(=O)[C@H](C)C[C@H](C)/C=C/C=C/C=C/1C" is greater than or equal to 70%
Result string: 1

Query string: Is it the case that "Nc1ccc2c(c1)CN1C(=O)c3ccccc3C1=N2" has growth inhibition reaching or exceeding 70%?
Result string: 0

Query string: Could you verify whether the entry "Oc1ccccc1N=CC1CCCCC1" shows growth inhibition of no less than 70%?
Result string: 0

Query string: Hello, I need to know if "Cc1ccc(CN2CC(=O)N3Cc4ccccc4CN3C(=O)C2)cc1" has measured growth inhibition not below 70%. Thanks!
Result string: 0

Query string: Decide: is the reported value of growth inhibition for "Cc1ccccc1N=Nc1ccccc1" equal to or greater than 70%?
Result string: 1

Query string: Item "O=C(SCCCc1ccccc1)c1cc([N+](=O)[O-])cc([N+](=O)[O-])c1" with growth inhibition of 70% or above?
Result string: 1

Query string: Would you say "O=c1[nH]n(CCc2ccccn2)c(=O)c(Cl)c1Cl" shows growth inhibition at minimum 70%?
Result string: 0
